These entries and their values trace back to patent US8435978B2.

Can you tell me inhibition at 10 µM for the items I'm about to list?
MEASURED_TARGET: human B1R receptor (Homo sapiens)
Construct: host or cells: CHO K1 cells (Chinese hamster ovary), stably transfected
Sequence (P46663 whole entry): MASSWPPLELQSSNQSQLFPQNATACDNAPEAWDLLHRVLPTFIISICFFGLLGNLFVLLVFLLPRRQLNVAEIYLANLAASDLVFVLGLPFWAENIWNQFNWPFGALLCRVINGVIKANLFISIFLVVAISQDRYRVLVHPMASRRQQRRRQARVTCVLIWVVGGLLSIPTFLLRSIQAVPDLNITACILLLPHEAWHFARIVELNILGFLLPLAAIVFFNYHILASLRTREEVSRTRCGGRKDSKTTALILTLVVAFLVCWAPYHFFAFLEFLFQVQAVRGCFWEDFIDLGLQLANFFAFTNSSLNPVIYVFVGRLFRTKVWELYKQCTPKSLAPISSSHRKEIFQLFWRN
TEST_DETAILS: Functional study on the bradykinin receptor 1 (B1R), FLIPR Ca2+ assay, hB1R cells
Format: cell-based
RUN_CONDITIONS: CHO-K1, test substance 10 μM, agonist Lys-Des-Arg9-bradykinin 0.5 nM, % inhibition compared with the maximum achievable inhibition, read-out: B1R Antagonism, human [10 μM] % Inhibition
Where a name gives a salt, the structure may show the parent alone.

Answer with the recorded inhibition at 10 µM of CN(C(=O)COCC1CCCCN1S(=O)(=O)c1c(Cl)cc(C(F)(F)F)cc1Cl)[C@H]1CCN(Cc2ccccc2)C1 (stereo partly drawn) only.
90%

Answer with the recorded inhibition at 10 µM of COc1cc(C)c(S(=O)(=O)N2CCCCC2COCC(=O)N2CCN(CCn3c(C)ccc3C)CC2)c(C)c1 (stereo not drawn) only.
99.9%

Answer with the recorded inhibition at 10 µM of O=C(COCC1CCCCN1S(=O)(=O)c1ccc(Cl)c(Cl)c1)N1CCC(Cc2ccccc2)CC1 (stereo not drawn) only.
62.4%

Answer with the recorded inhibition at 10 µM of COc1cc(C)c(S(=O)(=O)N2CCCCC2COCC(=O)NCc2ccccc2N2CCN(C)CC2)c(C)c1 (stereo not drawn) only.
94%

Answer with the recorded inhibition at 10 µM of O=C(COCC1Cc2ccccc2CN1S(=O)(=O)c1ccc(Cl)cc1Cl)Nc1cccc(N2CCOCC2)c1 (stereo not drawn) only.
100%

Answer with the recorded inhibition at 10 µM of CN1CCC(N2CCN(C(=O)COCC3CCCCN3S(=O)(=O)c3cccc4c(N(C)C)cccc34)CC2)CC1 (stereo not drawn) [Example 158, dihydrochloride] only.
98.5%

Answer with the recorded inhibition at 10 µM of CN(C)c1ccc(CNC(=O)COCC2CCCCN2S(=O)(=O)c2c(Cl)cc(Cl)cc2Cl)cc1 (stereo not drawn) only.
8.96%

Answer with the recorded inhibition at 10 µM of COc1ccc(S(=O)(=O)N2CCCCC2CCOCC(=O)N2CCN(CCN3CCCCC3)CC2)cc1 (stereo not drawn) only.
38%

Answer with the recorded inhibition at 10 µM of COc1cc(C)c(S(=O)(=O)N2CCCCC2COCC(=O)N2CCCC2c2ccc(N(C)C)cc2)c(C)c1 (stereo not drawn) only.
59.8%

Answer with the recorded inhibition at 10 µM of COc1cc(C)c(S(=O)(=O)N2CCCC2COCC(=O)NCc2ccccc2N2CCN(C)CC2)c(C)c1 (stereo not drawn) only.
94.6%

Answer with the recorded inhibition at 10 µM of COc1cccc(-c2cc(NC(=O)COCC3CCCCN3S(=O)(=O)c3c(C)cc(OC)cc3C)n[nH]2)c1 (stereo not drawn) only.
103%

Answer with the recorded inhibition at 10 µM of O=C(COCC1CCCCN1S(=O)(=O)c1c(Cl)cccc1Cl)N1CCN(CCO)CC1 (stereo not drawn) only.
46.8%

Answer with the recorded inhibition at 10 µM of O=C(COCC1CCCN1S(=O)(=O)c1c(Cl)cc(Cl)cc1Cl)N(C1CC1)C1CCN(Cc2ccccc2)CC1 (stereo not drawn) only.
107%

Answer with the recorded inhibition at 10 µM of COc1cc(C)c(S(=O)(=O)N2CCCCC2COCC(=O)N2CCN(C(=O)OC(C)(C)C)CC2)c(C)c1 (stereo not drawn) only.
100%

Answer with the recorded inhibition at 10 µM of Cc1cc(C)c(S(=O)(=O)N2Cc3ccccc3CC2COCC(=O)NCC2CCCN(Cc3ccccc3)C2)c(C)c1 (stereo not drawn) only.
72.6%

Answer with the recorded inhibition at 10 µM of COc1cc(C)c(S(=O)(=O)N2CCCCC2COCC(=O)NC(CN2CCCC2)c2ccccc2)c(C)c1 (stereo not drawn) only.
81.8%

Answer with the recorded inhibition at 10 µM of O=C(COCC1CCCCN1S(=O)(=O)c1c(Cl)cccc1Cl)N1CCN(c2ccc(F)cc2)CC1 (stereo not drawn) only.
102%

Answer with the recorded inhibition at 10 µM of COc1cccc(N2CCN(C(=O)COCC3CCCCN3S(=O)(=O)c3ccc(Cl)c(Cl)c3)CC2)c1 (stereo not drawn) only.
64.8%

Answer with the recorded inhibition at 10 µM of COc1cc(C)c(S(=O)(=O)N2CCCCC2COCC(=O)N2CCN(c3cccc(C(F)(F)F)c3)CC2)c(C)c1 (stereo not drawn) only.
92.7%

Answer with the recorded inhibition at 10 µM of COc1cc(C)c(S(=O)(=O)N2CCCC2COCC(=O)N2CCN(Cc3ccccc3)CC2)c(C)c1 (stereo not drawn) only.
96.6%

Answer with the recorded inhibition at 10 µM of COc1cc(C)c(S(=O)(=O)N2CCCCC2COCC(=O)Nc2cccc(N3CCOCC3)c2)c(C)c1 (stereo not drawn) only.
39.2%

Answer with the recorded inhibition at 10 µM of COc1cc(C)c(S(=O)(=O)N2CCCC2COCC(=O)Nc2ccc3cnn(C)c3c2)c(C)c1 (stereo not drawn) only.
65.1%

Answer with the recorded inhibition at 10 µM of O=C(COCC1CCCN1S(=O)(=O)c1c(Cl)cccc1Cl)N1CCC(CCN2CCCCC2)CC1 (stereo not drawn) only.
104%

Answer with the recorded inhibition at 10 µM of O=C(COCC1CCCCN1S(=O)(=O)c1c(Cl)cccc1Cl)N1CCCC1c1cccnc1 (stereo not drawn) only.
66%

Answer with the recorded inhibition at 10 µM of O=C(COCC1CCCCN1S(=O)(=O)c1c(Cl)cccc1Cl)N1CCC(c2ccncc2)C1 (stereo not drawn) only.
103%

Answer with the recorded inhibition at 10 µM of COc1cc(C)c(S(=O)(=O)N2CCCCC2COCC(=O)N2CCN(Cc3cccc(C#N)c3)CC2)c(C)c1 (stereo not drawn) [Example 92, hydrochloride] only.
103%

Answer with the recorded inhibition at 10 µM of COc1cc(C)c(S(=O)(=O)N2CCCCC2COCC(=O)N2CCN(Cc3ccc4nccnc4c3)CC2)c(C)c1 (stereo not drawn) only.
99.4%

Answer with the recorded inhibition at 10 µM of COc1cc(C)c(S(=O)(=O)N2CCCCC2COCC(=O)NCc2ccc(CN(C)C)cc2)c(C)c1 (stereo not drawn) only.
99.6%

Answer with the recorded inhibition at 10 µM of O=C(COCC1CCCCN1S(=O)(=O)c1c(Cl)cc(Cl)cc1Cl)NCc1ccc(CN2CCOCC2)cc1 (stereo not drawn) only.
84%

Answer with the recorded inhibition at 10 µM of O=C(COCC1CCCN1S(=O)(=O)c1c(Cl)cc(Cl)cc1Cl)NCc1ccc(CN2CCCCC2)cc1 (stereo not drawn) only.
100%
